Origin of values: paper PMC7101349

- test target: T1, His10-BRIL (Escherichia coli (engineered cytochrome …, stabilised))
- T1 construct: BRIL, an engineered variant of apocytochrome b562; Immobilised by its N-terminal His10 tag for SPR; also called wt BRIL; source: E. coli BL21 (DE3), purified (Ni-NTA); not shown: His10, N-terminal, kept
- test protocol: SPR; His10-BRIL immobilised on a nitrilotriacetic acid sensor chip via the N-terminal His10 tag; 2-fold dilution series of sABs at 30 μl/min; 20 °C; BIACORE 3000; 1:1 interaction model
- condition summary: both partners purified
reported endpoint: Kd (nM)
Quick note: give the figure in nM, leave out the unit.

INSERT INTO measurements (binder, measurement) VALUES
  ('BAG2 S36A (Fab, V domains shown, as the heavy chain of m3 (BAG2) with the stated change in CDR-H1; as the light chain of m3 (BAG2)) VH: EVQLVESGGGLVQPGGSLRLSCAASGFNVVDFALHWVRQAPGKGLEWVAYISSSSGSTSYADSVKGRFTISADTSKNTAYLQMNSLRAEDTAVYYCARWGYWPGEPWWKAFDYWGQGTLVTVSS VL: DIQMTQSPSSLSASVGDRVTITCRASQSVSSAVAWYQQKPGKAPKLLIYSASSLYSGVPSRFSGSRSGTDFTLTISSLQPEDFATYYCQQYLYYSLVTFGQGTKVEIK', 5.3);

Shifting focus to the binder that follows.
Query :: Item under review: BAG2 F35A (Fab, V domains shown, as the heavy chain of m3 (BAG2) with the stated change in CDR-H1; as the light chain of m3 (BAG2)) VH: EVQLVESGGGLVQPGGSLRLSCAASGFNVVDASLHWVRQAPGKGLEWVAYISSSSGSTSYADSVKGRFTISADTSKNTAYLQMNSLRAEDTAVYYCARWGYWPGEPWWKAFDYWGQGTLVTVSS VL: DIQMTQSPSSLSASVGDRVTITCRASQSVSSAVAWYQQKPGKAPKLLIYSASSLYSGVPSRFSGSRSGTDFTLTISSLQPEDFATYYCQQYLYYSLVTFGQGTKVEIK . Reported Kd?
Result :: 7.6
